- Test system: Streptococcus sp.
- ASSAY_METHOD_TEXT: in vitro antibacterial evaluation, MIC by broth dilution
- Format: cell-based
- EXPERIMENTAL_PARAMETERS: Streptococcus pneumoniae (GC 4565); broth dilution, 18 hours at 35° C.
Listed here are compounds together with their documented MIC Streptococcus pneumoniae (GC 4565).

CC(c1ccccc1)C1NC(=O)CNC(=O)C(CO)NC(=O)C(C(O)C2CNC(=N)N2C2OC(CO)C(O)C(O)C2O)NC(=O)C(C(O)C2CNC(=N)N2)NC(=O)C(Cc2ccc(OC3OC(CO)C(OC4OC5COC(c6ccc7c(c6)OCO7)OC5C(O)C4O)C(O)C3O)cc2)NC1=O (centres unmarked) : 0.25 to 0.5 µg/mL
Cc1ccc(CC2OCC3OC(OC4C(CO)OC(Oc5ccc(CC6NC(=O)C(C(C)c7ccccc7)NC(=O)CNC(=O)C(CO)NC(=O)C(C(O)C7CNC(=N)N7C7OC(CO)C(O)C(O)C7O)NC(=O)C(C(O)C7CNC(=N)N7)NC6=O)cc5)C(O)C4O)C(O)C(O)C3O2)cc1 (centres unmarked) : 1 µg/mL
CSc1ccc(C2OCC3OC(OC4C(CO)OC(Oc5ccc(CC6NC(=O)C(C(C)c7ccccc7)NC(=O)CNC(=O)C(CO)NC(=O)C(C(O)C7CNC(=N)N7C7OC(CO)C(O)C(O)C7O)NC(=O)C(C(O)C7CNC(=N)N7)NC6=O)cc5)C(O)C4O)C(O)C(O)C3O2)cc1 (centres unmarked) : <0.06 µg/mL
CC(c1ccccc1)C1NC(=O)CNC(=O)C(CO)NC(=O)C(C(O)C2CNC(=N)N2C2OC(CO)C(O)C(O)C2O)NC(=O)C(C(O)C2CNC(=N)N2)NC(=O)C(Cc2ccc(OC3OC(CO)C(OC4OC5COC(c6cccc(O)c6)OC5C(O)C4O)C(O)C3O)cc2)NC1=O (centres unmarked) : 4 µg/mL
CC(C)=CCCC(C)CC1OCC2OC(OC3C(CO)OC(Oc4ccc(CC5NC(=O)C(C(C)c6ccccc6)NC(=O)CNC(=O)C(CO)NC(=O)C(C(O)C6CNC(=N)N6C6OC(CO)C(O)C(O)C6O)NC(=O)C(C(O)C6CNC(=N)N6)NC5=O)cc4)C(O)C3O)C(O)C(O)C2O1 (centres unmarked) : <0.06 µg/mL
CC(c1ccccc1)C1NC(=O)CNC(=O)C(CO)NC(=O)C(C(O)C2CNC(=N)N2C2OC(CO)C(O)C(O)C2O)NC(=O)C(C(O)C2CNC(=N)N2)NC(=O)C(Cc2ccc(OC3OC(CO)C(OC4OC5COC(CC67CC8CC(CC(C8)C6)C7)OC5C(O)C4O)C(O)C3O)cc2)NC1=O (centres unmarked) : <0.06 µg/mL
CCCC(CCC)C(=O)OCC1OC(Oc2ccc(CC3NC(=O)C(C(C)c4ccccc4)NC(=O)CNC(=O)C(CO)NC(=O)C(C(O)C4CNC(=N)N4C4OC(CO)C(O)C(O)C4O)NC(=O)C(C(O)C4CNC(=N)N4)NC3=O)cc2)C(O)C(O)C1OC1OC(CO)C(O)C(O)C1O (centres unmarked) [Example 99b] : <0.5 µg/mL

MIC Streptococcus pneumoniae (GC 4565) reported for this compound CC(c1ccccc1)C1NC(=O)CNC(=O)C(CO)NC(=O)C(C(O)C2CNC(=N)N2C2OC(CO)C(O)C(O)C2O)NC(=O)C(C(O)C2CNC(=N)N2)NC(=O)C(Cc2ccc(OC3OC(CO)C(OC4OC5COC(c6ccc7ccccc7c6)OC5C(O)C4O)C(O)C3O)cc2)NC1=O (centres unmarked) : <0.5 µg/mL
